Reported log10 of Kd values for the following binders.
- Experimental system: T1, mouse vascular endothelial growth factor receptor-2 Fc chimera (Flk-1-Fc) (mouse, UniProt P35918 20-762)
- T1 construct: Bought from R&D Systems; also called mouse VEGFR-2; not shown: Fc part of the purchased chimera, not specified
- T1 sequence (P35918 20-762, change not shown): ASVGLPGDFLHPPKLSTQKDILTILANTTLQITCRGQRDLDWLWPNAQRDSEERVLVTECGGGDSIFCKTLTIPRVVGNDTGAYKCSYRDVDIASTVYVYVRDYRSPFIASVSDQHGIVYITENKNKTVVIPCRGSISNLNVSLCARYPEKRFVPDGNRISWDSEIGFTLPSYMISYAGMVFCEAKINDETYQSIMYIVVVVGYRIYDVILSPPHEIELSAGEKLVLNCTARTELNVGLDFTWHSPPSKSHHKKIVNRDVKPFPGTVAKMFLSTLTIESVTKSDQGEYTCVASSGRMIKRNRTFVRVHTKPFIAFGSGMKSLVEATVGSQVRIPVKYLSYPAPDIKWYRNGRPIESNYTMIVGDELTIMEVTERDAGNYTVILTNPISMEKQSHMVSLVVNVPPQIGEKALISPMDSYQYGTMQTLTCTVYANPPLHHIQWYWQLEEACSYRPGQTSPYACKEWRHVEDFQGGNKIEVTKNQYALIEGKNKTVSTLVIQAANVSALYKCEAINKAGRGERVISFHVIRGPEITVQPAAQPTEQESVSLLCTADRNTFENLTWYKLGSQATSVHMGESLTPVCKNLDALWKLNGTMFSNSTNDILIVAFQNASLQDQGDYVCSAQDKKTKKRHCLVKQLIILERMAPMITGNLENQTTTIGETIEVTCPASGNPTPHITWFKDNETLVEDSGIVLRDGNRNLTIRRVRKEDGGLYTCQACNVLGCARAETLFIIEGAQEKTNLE
- Procedure summary: radioactive equilibrium binding assay, Flk-1-Fc
// stored as log10 of Kd expressed in nM

- E18 (designed binder, 10Fn3 clone, Del 1-8) EVVAATPTSLLISWRHPHFPTRYYRITYGETGGNSPVQEFTVPLQPPTATISGLKPGVDYTITGYAVTVERNGRELNTPISINYRT: -0.28
- E19 (designed binder, 10Fn3 clone, Del 1-8) EVVAATPTSLLISWRHPHFPTRYYRITYGETGGNSPVQEFTVPLQPPTATISGLKPGVDYTITGYAVTVERNGRHLMTPISINYRT: -0.18
- E25 (designed binder, 10Fn3 clone, Del 1-8) EVVAATPTSLLISWRHPHFPTRYYRITYGETGGNSPVQEFTVPLQPPTATISGLKPGVDYTITGYAVTLERNGRELMTPISINYRT: 0.11

Fill blank: measured log10 of Kd of the binder E3 (designed binder, 10Fn3 clone, Del 1-8) EVVAATPTSLLISWRHPHFPTRYYRITYGETGGNSPVQEFTVPLQPPTATISGLKPGVDYTITGYAVTDGRNDRKLMVPISINYRT is ____.
0.73

Now try E28 (designed binder, 10Fn3 clone, Del 1-8) EVVAATPTSLLISWRHPHFPTRYYRITYGETGGNSPVQEFTVPLQPPTATISGLKPGVDYTITGYAVTLERNGRELMVPISINYRT .
0.32
